assayed target: Mitogen-activated protein kinase 7 (Homo sapiens) (UniProt Q13164)
Sequence (Q13164 whole entry, looked up, the tested form may be a part): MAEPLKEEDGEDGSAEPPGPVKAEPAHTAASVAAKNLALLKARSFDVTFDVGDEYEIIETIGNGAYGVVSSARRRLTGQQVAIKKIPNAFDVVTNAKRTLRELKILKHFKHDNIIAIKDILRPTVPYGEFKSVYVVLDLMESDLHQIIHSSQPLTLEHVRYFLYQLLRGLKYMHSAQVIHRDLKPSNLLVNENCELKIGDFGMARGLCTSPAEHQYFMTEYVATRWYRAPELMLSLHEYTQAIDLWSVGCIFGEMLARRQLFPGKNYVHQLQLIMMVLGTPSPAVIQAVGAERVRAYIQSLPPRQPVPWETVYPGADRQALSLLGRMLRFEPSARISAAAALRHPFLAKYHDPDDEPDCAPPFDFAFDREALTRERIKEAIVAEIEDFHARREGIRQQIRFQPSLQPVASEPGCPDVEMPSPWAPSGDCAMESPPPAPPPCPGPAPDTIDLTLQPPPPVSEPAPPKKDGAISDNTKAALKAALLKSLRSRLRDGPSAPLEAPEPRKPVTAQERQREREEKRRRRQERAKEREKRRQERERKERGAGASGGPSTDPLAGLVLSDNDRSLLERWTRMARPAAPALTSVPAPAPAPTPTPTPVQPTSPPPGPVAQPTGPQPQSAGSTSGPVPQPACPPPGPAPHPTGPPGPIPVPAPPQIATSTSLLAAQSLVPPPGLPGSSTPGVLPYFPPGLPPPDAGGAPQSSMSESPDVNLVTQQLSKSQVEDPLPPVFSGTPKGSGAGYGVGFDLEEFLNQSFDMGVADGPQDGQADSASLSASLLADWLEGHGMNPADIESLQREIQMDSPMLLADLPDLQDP
assay overview: Gal4-ERK5 driven luciferase induction – cell-based, HTS, primary screen (AID 1508626);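 note: luciferase driven by Gal4-ERK5 fusion binding five Gal4 sites before minimal TATA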
condition info: HeLa Gal4-ERK5 transactivation, 18 h, at 5 µM, stronger effect = higher value
Calls of active or inactive are those of the source.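 Rule for the calls: active = luciferase signal above three times the same-plate solvent-only control wells; inactive = the rest.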
Could you please report measured luciferase signal for the items listed next?

## Input Complete the entry with luciferase signal for `O=C(CCCN1CCN(c2ccccn2)CC1)c1ccc(F)cc1`
## Output 92 AU (inactive)

## Input Identify measured luciferase signal corresponding to `N=C(N)N`
## Output 44 AU (inactive)

## Input State its luciferase signal: `Oc1cc(O)c2c(c1)O[C@H](c1ccc(O)c(O)c1)[C@H](O)C2`
## Output 20 AU (inactive)

## Input For the molecule `CN(C)CC[C@@H](c1ccc(Cl)cc1)c1ccccn1` , report luciferase signal.
## Output 40 AU (inactive)

## Input Output luciferase signal of `O=c1oc2c(O)c(O)cc3c(=O)oc4c(O)c(O)cc1c4c23`
## Output 60 AU (inactive)

## Input // fetch luciferase signal given entry CC(c1cc2ccccc2s1)N(O)C(N)=O (stereo not drawn)
## Output 36 AU (inactive)

## Input Give luciferase signal for the following molecule: `CN1CCC(OC(c2ccccc2)c2ccccc2)CC1`
## Output 32 AU (inactive)

## Input Supply recorded luciferase signal for `COc1ccc(C(=O)c2ccccc2)c(O)c1` here.
## Output 36 AU (inactive)

## Input # return recorded luciferase signal for input `O=C(OCc1ccccc1)c1ccccc1`
## Output 88 AU (inactive)

## Input Please list luciferase signal recorded for the molecule `O=C(N[C@H](CO)[C@H](O)c1ccc([N+](=O)[O-])cc1)C(Cl)Cl`
## Output 88 AU (inactive)

## Input Indicate the recorded luciferase signal value for this molecule: `Nc1ccc(C(=O)Oc2ccccc2)c(O)c1`
## Output 84 AU (inactive)

## Input Query luciferase signal for `NCCCC(=O)O`
## Output 56 AU (inactive)

## Input Fill in luciferase signal for record `O=C(O)c1cn(-c2ccc(F)cc2)c2cc(N3CCNCC3)c(F)cc2c1=O`
## Output 72 AU (inactive)
